system: ATP; test: switch fluorescence ratio, 500 uM ATP over buffer (Cy3 cluster intensity, sum of 5 cycles each) (fold (ratio)); higher = stronger signal-on switching upon ATP binding; sequences stand for … in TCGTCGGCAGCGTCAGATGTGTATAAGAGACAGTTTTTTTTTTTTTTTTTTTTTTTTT…TC; conditions: aptamer strand: ATP DNA aptamer (quencher-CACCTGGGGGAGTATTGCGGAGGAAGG + anchor), 100 nM annealed; ATP concentration: 500 uM;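 further: ATP exposure 15 min at 22 °C before imaging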
MEASURED_QUANTITY: switch fluorescence ratio

> print(dat)
    primary.sequence  recorded.number
 1        TAGGAGGTTT             1.07
 2        TTCGATTGGG            0.957
 3        GGGTGGCAAG            0.996
 4        GGAGGTGGGT             1.01
 5        ATGGACGGGT            0.996
 6        CCTTTTGAAC             1.04
 7        GGCAGGATAT             1.02
 8        ATGTAGGTTA            0.987
 9        TTAATACTGT             1.03
10        TAAAGCGAAC             1.29
11        CACGGGGGTT                1
12        AGTATCACGG             1.01
13        CGTGATCAGA            0.996
14        TGAAAATAGG            0.977
15        GATATTGCGA             1.02
16        AAAGGTTGTT             1.01
17        GGCCGATCAT             1.02
18        GGTCGGCGGG             1.03
19        ATCATACTGT             1.01
20        TGATCAAGTG             0.99
21        CCTAATCGGT             1.01
22        ATTAATGGGT             1.02
23        CATATTGGGG            0.963
24        TGAATCCTCG             1.05
25        CGAGGGGGGG             1.01
26        CGGTGAATAT            0.971
27        ACATATATGG            0.975
28         ACTTTTTTT                1
29        ATGGGAGAAT             0.98

---

test system: ATP; experiment: switch fluorescence ratio, 500 uM ATP over buffer (Cy3 cluster intensity, sum of 5 cycles each) (fold (ratio)); higher = stronger signal-on switching upon ATP binding; sequences stand for … in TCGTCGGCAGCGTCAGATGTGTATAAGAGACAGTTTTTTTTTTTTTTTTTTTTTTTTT…TC; settings: aptamer strand: ATP DNA aptamer (quencher-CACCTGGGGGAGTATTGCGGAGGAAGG + anchor), 100 nM annealed; ATP concentration: 500 uM;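 further: ATP exposure 15 min at 22 °C before imaging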
MEASURED_QUANTITY: switch fluorescence ratio

> print(dat)
    primary.sequence  recorded.number
 1        TGACGGGGTA             1.04
 2        TCGGAGGCGG             1.01
 3        TTACAGTTCA             1.03
 4        GCCGGAAAGG            0.986
 5        GAGGGGATAG             1.03
 6        ATTTTTGATG             1.02
 7        TTGGTAATGG             1.04
 8        TAGTTCATGG            0.991
 9        CCTGGCGGCT             1.06
10        CCTGGTTTTG             1.04
11        ATGCATGGAG             1.03
